assay.system: T1, CRBN, Q96SW2;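 also: pooled lentiviral library of zinc finger degron-EGFP fusions in mCherry-positive Jurkat cells, FACS-sorted after compound exposure, with degron abundance counted by next-generation sequencing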
T1 chain: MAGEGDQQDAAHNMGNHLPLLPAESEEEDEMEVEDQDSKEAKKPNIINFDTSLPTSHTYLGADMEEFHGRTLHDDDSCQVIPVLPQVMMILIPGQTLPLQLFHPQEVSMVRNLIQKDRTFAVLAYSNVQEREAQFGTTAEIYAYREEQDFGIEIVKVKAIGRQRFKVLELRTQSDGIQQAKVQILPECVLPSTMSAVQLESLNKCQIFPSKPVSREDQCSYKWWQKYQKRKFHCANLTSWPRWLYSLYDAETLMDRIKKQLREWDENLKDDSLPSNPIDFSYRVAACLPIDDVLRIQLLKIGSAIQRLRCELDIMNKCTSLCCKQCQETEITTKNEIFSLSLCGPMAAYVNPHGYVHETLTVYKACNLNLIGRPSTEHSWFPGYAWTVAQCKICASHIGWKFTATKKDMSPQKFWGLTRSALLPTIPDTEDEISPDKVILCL
test.method.notes: log2 fold change of degron read counts, EGFP-low vs EGFP+ sorted cells (limma voom), compound-induced degradation; higher = more compound-induced degradation of the degron-EGFP fusion; degrons are variants of IKZF1/3 zinc finger 2; compound dose not given here
condition.set: Jurkat; 18 h; compound: compound 22 (5-morpholino-thalidomide)
In all, about 8,300 sequences were measured (“log2 fold change of degron read counts, EGFP-low vs EGFP+ sorted cells (limma voom), compound-induced degradation”: median about -1.1, highest 2% from about 3.2 on). The full list was thinned out, with the highest values kept by preference.
Reported log2 fold change of degron read counts maps to class as: I (below 2), II (2 to below 3), III (3 or more)

1. FFCNQCGAKFTQKGNLLRHIKL [46F_47F_49N_50Q_52G_53A_54K_55F_67L_, Q9UKT9] ... I
2. LQCPICGFYCTQKGNLLRHIKL [46L_47Q_49P_50I_52G_53F_54Y_55C_67L_, Q9UKT9] ... I
3. LGCPICGFYCTQKGNLLRHIKL [46L_47G_49P_50I_52G_53F_54Y_55C_67L_, Q9UKT9] ... II
4. FVCEICGACFTQKGNLLRHIKL [46F_47V_49E_50I_52G_53A_54C_55F_67L_, Q9UKT9] ... I
5. LACPICGFYCTQKGNLLRHIKL [46L_47A_49P_50I_52G_53F_54Y_55C_67L_, Q9UKT9] ... II
6. LFCPICGFECTQKGNLLRHIKL [46L_47F_49P_50I_52G_53F_54E_55C_67L_, Q9UKT9] ... II

Consider the additional sequence presented here.
Data request: Record FCCDICGAKFTQKGNLLRHIKL [46F_47C_49D_50I_52G_53A_54K_55F_67L_, Q9UKT9] — which class?
Data returned: I
